Give IC50 for every item shown.
# Assayed System: human RORγ-LBD (Homo sapiens, UniProt P51449)
# Construct: made in house; host or cells: E. coli (BL-21)
# Sequence (P51449 262-518): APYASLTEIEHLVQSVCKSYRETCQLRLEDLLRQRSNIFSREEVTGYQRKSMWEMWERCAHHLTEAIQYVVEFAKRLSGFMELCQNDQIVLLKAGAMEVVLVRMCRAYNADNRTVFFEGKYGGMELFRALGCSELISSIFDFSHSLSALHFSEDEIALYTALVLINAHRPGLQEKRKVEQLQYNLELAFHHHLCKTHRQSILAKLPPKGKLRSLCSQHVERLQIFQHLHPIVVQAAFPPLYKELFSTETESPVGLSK
# Assay Name: ROR gamma coactivator peptide recruitment Alphascreen assay (RORγ-LBD binding to GRIP1 coactivator peptide)
# Assay type: biochemical
# Assay Conditions: 5 nM human RORγ-LBD, 30 nM 7-β-hydroxycholesterol, 50 nM biotinylated GRIP1 coactivator peptide, overnight incubation at room temperature; read-out: result (pIC50, RORγ coactivator peptide recruitment Alphascreen assay) (converted)
Express it in nM; write the number only.

Quick one: IC50 for O=C(c1cnn([C@H]2CC[C@H](C(=O)O)CC2)c1C(F)(F)F)N(CCc1ccc2cc[nH]c2c1)Cc1ccc(Cl)cc1 ?
355

Quick one: IC50 for Cc1cc(C)c(C(=O)CN(C(=O)c2cnn([C@H]3CC[C@](C)(C(=O)O)CC3)c2C(F)(F)F)[C@H]2C[C@@H]3[C@H](C2)C3(C)C)c(Cl)n1 ?
7.94

Quick one: IC50 for O=C(CN(CC1CC2(CC2)C1)C(=O)c1cnn([C@H]2CC[C@H](C(=O)O)CC2)c1C(F)(F)F)c1c(Cl)cccc1Cl ?
2.4

Quick one: IC50 for COc1cc(Cl)c(C(=O)CN(CC2(F)CCCC2)C(=O)c2cnn([C@H]3CC[C@](C)(C(=O)O)CC3)c2C(F)(F)F)c(Cl)c1 ?
5.75

Quick one: IC50 for CC1(C)CC(CN(CC(=O)c2ccccc2Br)C(=O)c2cnn([C@H]3CC[C@](C)(C(=O)O)CC3)c2C(F)(F)F)C1 ?
42.7

Quick one: IC50 for Cc1cc(F)c(C(=O)CN(CC2(C)CCC2)C(=O)c2cnn([C@H]3CC[C@](C)(C(=O)O)CC3)c2C(F)(F)F)c(Cl)c1 ?
4.47

Quick one: IC50 for C[C@]1(C(=O)O)CC[C@H](n2ncc(C(=O)N(CC(=O)c3c(Cl)cccc3Cl)[C@@H]3CCOC4(CCC4)C3)c2C(F)(F)F)CC1 ?
355

Quick one: IC50 for C[C@@H]1C[C@@H](n2ncc(C(=O)N(CC(=O)c3c(Cl)cncc3Cl)CC(C)(C)F)c2C(F)(F)F)CC[C@@H]1C(=O)O ?
9.55

Quick one: IC50 for C[C@]1(C(=O)O)CC[C@H](n2ncc(C(=O)N3C[C@@H](Oc4ccccc4)C[C@@H]3C(=O)c3c(Cl)cncc3Cl)c2C(F)(F)F)CC1 (single isomer, unassigned) ?
18200

Quick one: IC50 for CC1(CN(CC(=O)c2c(Cl)cncc2Cl)C(=O)c2cnn([C@H]3CC[C@](C)(C(=O)O)CC3)c2C(F)(F)F)CCC1 ?
3.55

Quick one: IC50 for C[C@]1(C(=O)O)CC[C@H](n2ncc(C(=O)N(CC(=O)c3c(Cl)ccc(F)c3Cl)CC3(C(F)(F)F)CC3)c2C(F)(F)F)CC1 ?
3.16

Quick one: IC50 for C[C@]1(C(=O)O)CC[C@H](n2ncc(C(=O)N(CC(=O)c3c(Cl)cccc3Cl)[C@@H]3CCC34CCCC4)c2C(F)(F)F)CC1 ?
7.94
